- System: Aeromonas allosaccharophila
- ASSAY DETAILS: Ratio of Kcat to Km for Aeromonas allosaccharophila AL-1 beta-lactamase PER2
Each entry gets N if its kcat/Km stays under 200000 M⁻¹ s⁻¹, and Y if its kcat/Km is 200000 M⁻¹ s⁻¹ or above.

// known answers, use as guide
QUERY: Decide: is the reported value of kcat/Km for CO/N=C(\C(=O)N[C@@H]1C(=O)N2C(C(=O)O)=C(COC(C)=O)CS[C@H]12)c1csc(N)n1 [CEFOTAXIME] equal to or greater than 200000 M⁻¹ s⁻¹?
RESULT: Y

QUERY: C[C@@H](O)[C@H]1C(=O)N2C(C(=O)O)=C(SCCNC=N)C[C@H]12 [IMIPENEM ANHYDROUS] , same question.
RESULT: N

QUERY: Also need C[C@H]1[C@H](NC(=O)/C(=N\OC(C)(C)C(=O)O)c2csc(N)n2)C(=O)N1S(=O)(=O)O [AZTREONAM] , thanks.
RESULT: N

QUERY: Another compound to look at: CC(=O)OCC1=C(C(=O)O)N2C(=O)[C@@H](NC(=O)Cc3cccs3)[C@H]2SC1 [CEPHALOTHIN]
RESULT: Y

QUERY: Same question for `CC1(C)S[C@@H]2[C@H](NC(=O)Cc3ccccc3)C(=O)N2[C@H]1C(=O)O` please.
RESULT: N

Consider the additional compound presented here.
QUERY: Kindly determine if kcat/Km recorded for `CC1(C)S[C@@H]2[C@H](NC(=O)[C@H](N)c3ccccc3)C(=O)N2[C@H]1C(=O)O` is above or exactly 200000 M⁻¹ s⁻¹.
RESULT: Y
